Let's look at some molecules and their measured TGI.
- Test system: OVCAR-4 ovarian
- test: NCI tumour cell line growth inhibition, 48 h
recorded.endpoint: TGI (µM)

> print(dat)
                                   molecule  relation.sign  observed.result
1  CCn1c(-c2cc3ccccc3cc2OC(=O)c2ccccc2)n[nH]c1=S              >               50
2    COc1ccc(/C(Cl)=C(\C=O)c2ccc(Cl)cc2)cc1              >              100
3  COc1cc(C=NCC(=O)CSC(c2ccccc2)c2ccccc2)cc(OC)c1OC              =             64.4
4         CN(CCc1ccccn1)C(=S)N/N=C/c1ccccn1              =             21.4
5  COC(=O)C1CC(C=O)=C(SC)N1 (stereo not given)              >               50
